molecular target: UniProtKB P07451
pKi: −log10 of the molar value.
Using pKi as the sorting value, the categories are lower (below 3), middle (3 to below 4), upper (4 or more)

Some solved cases for reference:
>>> df
                                   compound  classification
0                    Nc1ccc(S(N)(=O)=O)cc1F           lower
1                    Cn1nc(S(N)(=O)=O)sc1=N          middle
2  CCN1CCCC1CNC(=O)c1cc(S(N)(=O)=O)ccc1OC (centres undefined) [SULPIRIDE]           upper
3  CC1(C)O[C@@H]2[C@@H](CO[C@@]3(COS(N)(=O)=O)OC(C)(C)O[C@@H]23)O1 [TOPIRAMATE]          middle
4  NS(=O)(=O)c1cc(Cl)c(Cl)c(S(N)(=O)=O)c1 [DICHLORPHENAMIDE]          middle

Input line: Category of `Nc1nnc(S(N)(=O)=O)s1` , please.
Output line: middle

###

Ki data for Carbonic anhydrase 3 (Homo sapiens, UniProt P07451) follow.
Report the figure in µM without appending any unit label.

                                   compound                            assayed_system  quantity  units  observed
0  CCNC1CN(CCCOC)S(=O)(=O)c2sc(S(N)(=O)=O)cc21 (single isomer, unassigned) [BRINZOLAMIDE]  Carbonic anhydrase 3 (Homo sapiens, UniProt P07451)        Ki     µM       110
1     Nc1ccc(S(N)(=O)=O)cc1 [SULFANILAMIDE]  Carbonic anhydrase 3 (Homo sapiens, UniProt P07451)        Ki     µM       988

# ---- query compound ----
Input line: Please report the recorded Ki for `O=C1NS(=O)(=O)c2ccccc21` .
Output line: 1000

The measured values listed here are drawn from ChEMBL document CHEMBL1137482.
